Assign inhibition at 5 µM to each entry below.
- System: recRSV A2-L19FD489E-fireSMASh
- Experiment Description: microbe, parasite or virus in culture
- Type: cell-based, Respiratory Syncytial Virus
- Condition Parameters: human respiratory syncytial virus, 384-well, four replicate screens, mean ± SD, BEAS-2B co-infection, read-out: % Inhibition (anti-RSV)
Field: numeric (%). Do not append units.

Would you kindly share the measured inhibition at 5 µM for `CC[C@]1(O)C[C@H]2CN(CCc3c([nH]c4ccccc34)[C@@](C(=O)OC)(c3cc4c(cc3OC)N(C=O)[C@H]3[C@@](O)(C(=O)OC)[C@H](OC(C)=O)[C@]5(CC)C=CCN6CC[C@]43[C@@H]65)C2)C1` ?
79

Would you kindly share the measured inhibition at 5 µM for CN(Cc1cnc2nc(N)nc(N)c2n1)c1ccc(C(=O)N[C@@H](CCC(=O)O)C(=O)O)cc1 [Methotrexate] ?
99

Would you kindly share the measured inhibition at 5 µM for COc1cccc2c1C(=O)c1c(O)c3c(c(O)c1C2=O)C[C@@](O)(C(=O)CO)C[C@@H]3O[C@H]1C[C@H](N)[C@@H](O)[C@H](C)O1 [Epirubicin] ?
62
